Each recorded value in this set is attributed to patent US20180250303A1.

Listed next: entries and their corresponding pIC50.
# Target of assay: HIS-TGFβR1 T204D (Homo sapiens, UniProt P36897, T204D)
# Sequence (P36897 34-503 T204D): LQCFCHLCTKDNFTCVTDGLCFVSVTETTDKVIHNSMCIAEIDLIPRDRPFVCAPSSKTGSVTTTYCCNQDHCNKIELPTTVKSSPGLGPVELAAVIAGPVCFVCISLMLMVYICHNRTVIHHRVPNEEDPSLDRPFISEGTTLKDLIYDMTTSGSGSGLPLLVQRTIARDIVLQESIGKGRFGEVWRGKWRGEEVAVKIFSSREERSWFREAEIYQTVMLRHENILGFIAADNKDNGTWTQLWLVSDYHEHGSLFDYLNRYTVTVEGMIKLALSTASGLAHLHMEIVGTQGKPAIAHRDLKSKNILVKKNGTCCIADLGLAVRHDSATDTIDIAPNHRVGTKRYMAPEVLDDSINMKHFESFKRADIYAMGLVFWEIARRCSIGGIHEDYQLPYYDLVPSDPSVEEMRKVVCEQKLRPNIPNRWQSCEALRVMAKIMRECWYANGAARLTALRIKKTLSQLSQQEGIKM
# Run description: HTRF probe displacement assay, TGFβR1 HIS T204D
# Details: 1 nM HIS-TGFβR1 T204D, labeled probe at Kd, 1 hour at room temperature
# Protocol: Compounds were dissolved at 10 mM in dimethylsulfoxide (DMSO) and evaluated at eleven concentrations. IC50 values were derived by non-linear regression analysis.
pIC50 is a log-scale quantity: -log10 of the concentration expressed in molar.

Look over these answered cases.
[[record]]
compound = "Fc1cnccc1Nc1nc(-c2cccc(C(F)(F)F)n2)nc2[nH]cnc12 [Example 3]"
target_of_assay = "HIS-TGFβR1 T204D (Homo sapiens, UniProt P36897, T204D)"
recorded_result = 8.96

[[record]]
compound = "CC(=O)Nc1cc(Nc2nc(-c3cccc(C(F)(F)F)n3)nc3[nH]c(C)nc23)c(F)cn1 [Example 15]"
target_of_assay = "HIS-TGFβR1 T204D (Homo sapiens, UniProt P36897, T204D)"
recorded_result = 7.29

[[record]]
compound = "COCC(=O)Nc1cc(Nc2nc(-c3cccc(C(F)(F)F)n3)nc3[nH]cnc23)ccn1 [Example 21]"
target_of_assay = "HIS-TGFβR1 T204D (Homo sapiens, UniProt P36897, T204D)"
recorded_result = 9.35


Please look at the following compound next.
compound O=C(CCC(F)(F)F)Nc1cc(Nc2nc(-c3cccc(C(F)(F)F)n3)nc3[nH]cnc23)ccn1 [Example 23] , pIC50 observed: 9.32
